Data credit: paper PMC10051485

Entries annotated with measured IC50
- tgt: Aβ1–42 (Homo sapiens)
- Construct: Amyloid beta (Aβ1–42) was purchased from the American Peptide Company; purchased American Peptide Company (Sunnyvale, CA, USA)
- Sequence (P05067 672-713): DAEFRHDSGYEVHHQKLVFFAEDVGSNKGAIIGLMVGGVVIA
- measurement description: Anti-Aβ aggregation activity (Thioflavin T fluorescence assay)
- Format: biochemical
- settings: ThT assay, Aβ1–42, 24 h, room temperature, pH 7.4; read-out: IC50 (µM) ± RSD, antiaggregation action on Aβ42

In the examples that follow, each entry is paired with its recorded IC50.
Cc1[nH]c2ccc(Oc3ccccc3)cc2c1CC(=O)NCc1ccc(F)cc1 | 72.7 µM
Cc1ccc(S(=O)(=O)NC(=O)Cc2c(C)[nH]c3ccc(Oc4ccccc4)cc23)cc1 | 9.48 µM
CCOC(=O)Cc1c(C)[nH]c2ccc(Oc3ccccc3)cc12 | 19.1 µM
Cc1[nH]c2ccc(Oc3ccccc3)cc2c1CC(=O)NC#N | 20.6 µM
Cc1ccc(CNC(=O)Cc2c(C)[nH]c3ccc(Oc4ccccc4)cc23)cc1 | 53.7 µM

What value of IC50 has been reported for the following compound? Cc1[nH]c2ccc(Oc3ccccc3)cc2c1CC(=O)O
18.8 µM

Would you mind doing COC(=O)Cc1c(C)[nH]c2ccc(Oc3ccccc3)cc12 as well?
14 µM

Would you mind doing Cc1[nH]c2ccc(Oc3ccccc3)cc2c1CC(=O)NS(C)(=O)=O as well?
3.18 µM

Would you mind doing Cc1[nH]c2ccc(Oc3ccccc3)cc2c1CC(=O)Nc1ccccc1 as well?
13.1 µM

Would you mind doing CNC(=O)Cc1c(C)[nH]c2ccc(Oc3ccccc3)cc12 as well?
3.26 µM

---

- measurement description: in vitro
- settings: human
Entries annotated with measured viability at 24 h
Quick reminder: number only, in %, skip the unit.

What value of viability at 24 h has been reported for the following compound? COC(=O)Cc1c(C)[nH]c2ccc(Oc3ccccc3)cc12
93.4

Would you mind doing Cc1[nH]c2ccc(Oc3ccccc3)cc2c1CC(=O)NC#N as well?
93.8

Would you mind doing CCOC(=O)Cc1c(C)[nH]c2ccc(Oc3ccccc3)cc12 as well?
89.5

Would you mind doing Cc1[nH]c2ccc(Oc3ccccc3)cc2c1CC(=O)Nc1ccccc1 as well?
94.3

Would you mind doing Cc1[nH]c2ccc(Oc3ccccc3)cc2c1CC(=O)O as well?
90.4

---

- tgt: Acetylcholinesterase (AChE) (Electrophorus electricus, UniProt O42275)
- Construct: purchased Sigma type VI-S
- Sequence (O42275 24-633): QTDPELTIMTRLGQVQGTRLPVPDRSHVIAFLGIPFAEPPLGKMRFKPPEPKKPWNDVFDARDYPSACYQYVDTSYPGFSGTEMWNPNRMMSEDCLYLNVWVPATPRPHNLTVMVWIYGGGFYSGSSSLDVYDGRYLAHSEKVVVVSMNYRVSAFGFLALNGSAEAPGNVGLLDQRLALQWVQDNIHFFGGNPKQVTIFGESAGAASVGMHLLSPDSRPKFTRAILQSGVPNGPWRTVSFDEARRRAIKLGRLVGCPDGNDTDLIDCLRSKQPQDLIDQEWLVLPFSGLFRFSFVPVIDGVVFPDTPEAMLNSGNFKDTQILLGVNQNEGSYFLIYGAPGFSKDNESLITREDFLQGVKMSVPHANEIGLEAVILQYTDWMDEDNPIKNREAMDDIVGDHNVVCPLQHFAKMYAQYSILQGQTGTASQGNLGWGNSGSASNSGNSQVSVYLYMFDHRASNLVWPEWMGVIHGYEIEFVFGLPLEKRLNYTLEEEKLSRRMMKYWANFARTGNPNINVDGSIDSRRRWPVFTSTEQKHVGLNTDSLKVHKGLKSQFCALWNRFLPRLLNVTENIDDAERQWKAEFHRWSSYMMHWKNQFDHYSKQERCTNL
- measurement description: Antiacetylcholinesterase activity (Ellman assay)
- Assay type: biochemical, Electrophorus electricus (electric eel)
- settings: read-out: % Inhibition ± RSD of acetylcholinesterase
parameter: inhibition at 100 µM (%)
Quick reminder: number only, in %, skip the unit.

What value of inhibition at 100 µM has been reported for the following compound? Cc1[nH]c2ccc(Oc3ccccc3)cc2c1CC(=O)NC#N
6.61

Would you mind doing Cc1[nH]c2ccc(Oc3ccccc3)cc2c1CC(=O)Nc1ccccc1 as well?
30

---

Entries annotated with measured viability at 24 h
- measurement description: in vitro
- settings: human
Quick reminder: number only, in %, skip the unit.

In the examples that follow, each entry is paired with its recorded viability at 24 h.
CNC(=O)Cc1c(C)[nH]c2ccc(Oc3ccccc3)cc12 | 93.7
Cc1[nH]c2ccc(Oc3ccccc3)cc2c1CC(=O)NS(C)(=O)=O | 93

Here is the next item to consider.
What value of viability at 24 h has been reported for the following compound? COc1cc(/C=C/C(=O)CC(=O)/C=C/c2ccc(O)c(OC)c2)ccc1O [Curcumin, reference compound]
94.4

---

Entries annotated with measured Highest concentration that showed nontoxicity on SK-N-SH cells
- Tested on: SK-N-SH neuroblastoma cells
- measurement description: Cytotoxicity on SK-N-SH neuroblastoma cells (MTT assay)
- settings: MTT, 24 h, tested 0–1000 µM

Cc1[nH]c2ccc(Oc3ccccc3)cc2c1CC(=O)NCc1ccc(F)cc1 | 31.25 µM
Cc1[nH]c2ccc(Oc3ccccc3)cc2c1CC(=O)NS(C)(=O)=O | 62.50 µM
CCOC(=O)Cc1c(C)[nH]c2ccc(Oc3ccccc3)cc12 | 31.25. µM
Cc1ccc(S(=O)(=O)NC(=O)Cc2c(C)[nH]c3ccc(Oc4ccccc4)cc23)cc1 | 15.63 µM
Cc1ccc(CNC(=O)Cc2c(C)[nH]c3ccc(Oc4ccccc4)cc23)cc1 | 31.25 µM
COc1cc(/C=C/C(=O)CC(=O)/C=C/c2ccc(O)c(OC)c2)ccc1O [Curcumin, reference compound] | 15.63 µM
Cc1[nH]c2ccc(Oc3ccccc3)cc2c1CC(=O)NC#N | 62.50 µM
Cc1[nH]c2ccc(Oc3ccccc3)cc2c1CC(=O)O | 31.25 µM
Cc1[nH]c2ccc(Oc3ccccc3)cc2c1CC(=O)Nc1ccccc1 | 15.63 µM
COC(=O)Cc1c(C)[nH]c2ccc(Oc3ccccc3)cc12 | 31.25 µM

Here is the next item to consider.
What value of Highest concentration that showed nontoxicity on SK-N-SH cells has been reported for the following molecule? CNC(=O)Cc1c(C)[nH]c2ccc(Oc3ccccc3)cc12
31.25 µM

---

- Tested on: SK-N-SH neuroblastoma cells
- measurement description: Cytotoxicity on SK-N-SH neuroblastoma cells (MTT assay)
- settings: MTT, 24 h, at the concentration of Table 2
parameter: % Viability ± RSD at the highest nontoxic concentration (%)
Quick reminder: number only, in %, skip the unit.

In the examples that follow, each entry is paired with its recorded % Viability ± RSD at the highest nontoxic concentration.
Cc1[nH]c2ccc(Oc3ccccc3)cc2c1CC(=O)NCc1ccc(F)cc1 | 80.51
Cc1ccc(S(=O)(=O)NC(=O)Cc2c(C)[nH]c3ccc(Oc4ccccc4)cc23)cc1 | 90.73
C[S+](C)[O-] | 92.08

Here is the next item to consider.
What value of % Viability ± RSD at the highest nontoxic concentration has been reported for the following molecule? Cc1ccc(CNC(=O)Cc2c(C)[nH]c3ccc(Oc4ccccc4)cc23)cc1
95.21

---

Entries annotated with measured log10(IC50)
- measurement description: Antioxidant activity (DPPH assay)
- settings: DPPH 0.4 mM, 30 min in darkness; read-out: IC50 (µM) ± RSD, antioxidative activity
A value of 2 here means IC50 of 100 in µM, since values are log10.

In the examples that follow, each entry is paired with its recorded log10(IC50).
Cc1ccc(S(=O)(=O)NC(=O)Cc2c(C)[nH]c3ccc(Oc4ccccc4)cc23)cc1 | 2.08
O=C1O[C@H]([C@@H](O)CO)C(O)=C1O [Vitamin C, L-ascorbic acid, reference compound] | 1.12
Cc1[nH]c2ccc(Oc3ccccc3)cc2c1CC(=O)O | 1.67
CNC(=O)Cc1c(C)[nH]c2ccc(Oc3ccccc3)cc12 | 2.25
Cc1[nH]c2ccc(Oc3ccccc3)cc2c1CC(=O)NCc1ccc(F)cc1 | 1.93

What value of log10(IC50) has been reported for the following compound? CCOC(=O)Cc1c(C)[nH]c2ccc(Oc3ccccc3)cc12
2.28

Would you mind doing COC(=O)Cc1c(C)[nH]c2ccc(Oc3ccccc3)cc12 as well?
2.16

Would you mind doing Cc1[nH]c2ccc(Oc3ccccc3)cc2c1CC(=O)NS(C)(=O)=O as well?
1.45

Would you mind doing Cc1[nH]c2ccc(Oc3ccccc3)cc2c1CC(=O)NC#N as well?
1.93

Would you mind doing Cc1ccc(CNC(=O)Cc2c(C)[nH]c3ccc(Oc4ccccc4)cc23)cc1 as well?
2.42

Would you mind doing Cc1[nH]c2ccc(Oc3ccccc3)cc2c1CC(=O)Nc1ccccc1 as well?
2.05

---

- tgt: Acetylcholinesterase (AChE) (Electrophorus electricus, UniProt O42275)
- Construct: purchased Sigma type VI-S
- measurement description: Antiacetylcholinesterase activity (Ellman assay)
- Assay type: biochemical, Electrophorus electricus (electric eel)
- settings: read-out: % Inhibition ± RSD of acetylcholinesterase
parameter: inhibition at 100 µM (%)
Quick reminder: number only, in %, skip the unit.

In the examples that follow, each entry is paired with its recorded inhibition at 100 µM.
Cc1[nH]c2ccc(Oc3ccccc3)cc2c1CC(=O)O | 29.3
CCOC(=O)Cc1c(C)[nH]c2ccc(Oc3ccccc3)cc12 | 19.9

What value of inhibition at 100 µM has been reported for the following molecule? CNC(=O)Cc1c(C)[nH]c2ccc(Oc3ccccc3)cc12
9.73

Would you mind doing Cc1[nH]c2ccc(Oc3ccccc3)cc2c1CC(=O)NS(C)(=O)=O as well?
-5.66

Would you mind doing COC(=O)Cc1c(C)[nH]c2ccc(Oc3ccccc3)cc12 as well?
11
